Biological target: human GLP-1 receptor (human, UniProt P43220 24-463)
Experiment: cell-based or functional assay
Positions of bridges follow the written chain, without caps; N, C: chain ends. Non-standard residues stand in square brackets, D forms with d. No end group written: not given here. *: point of attachment. Acetyl(2-(4-imidazolyl)) = O=C(Cc1c[nH]cn1)*; Aib = CC(C)(N)C(=O)O
quantity: In vitro activity (%) compared with native peptide: vs GLP-1
In your response, put the unit directly after the numeric value.

Recall and state the measured In vitro activity (%) compared with native peptide: vs GLP-1 for Y[Aib]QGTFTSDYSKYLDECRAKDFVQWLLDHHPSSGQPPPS (bridge 16-20; not fully specified) [triple agonist of SEQ ID NO: 66] .
15.8%

Recall and state the measured In vitro activity (%) compared with native peptide: vs GLP-1 for Y[Aib]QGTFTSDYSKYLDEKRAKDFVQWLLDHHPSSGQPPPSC (bridge 16-20; not fully specified) [triple agonist of SEQ ID NO: 76] .
10.3%

Recall and state the measured In vitro activity (%) compared with native peptide: vs GLP-1 for {Acetyl(2-(4-imidazolyl))}-[Aib]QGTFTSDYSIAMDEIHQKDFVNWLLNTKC (bridge 15-19; not fully specified) [triple agonist of SEQ ID NO: 94] .
0.5%

Recall and state the measured In vitro activity (%) compared with native peptide: vs GLP-1 for {Acetyl(2-(4-imidazolyl))}-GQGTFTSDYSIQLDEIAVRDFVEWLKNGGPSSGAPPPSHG (not fully specified; also: ring from underlined residues, positions not shown) [triple agonist of SEQ ID NO: 14] .
28%
